test system: KRAS-mutant PDC complex spheroid viability; test: Anticancer human tumor 186277-243-T-J2-PDC patient-derived colon adenocarcinoma cell line growth inhibition [KRAS2]; settings: second compound 0.316 µM; first compound 0.0316 µM; stronger effect = lower value
recorded-endpoint: viability, T/C (%)
Numeric answer only, unit % assumed.

COc1cc2nccc(Oc3ccc(NC(=O)C4(C(=O)Nc5ccc(F)cc5)CC4)cc3)c2cc1OC + C=CC(=O)N1CCN(c2nc(OCC3CCCN3C)nc3c2CCN(c2cccc4cccc(C)c24)C3)CC1CC#N
109
O=C(c1cc(Cc2n[nH]c(=O)c3ccccc23)ccc1F)N1CCN(C(=O)C2CC2)CC1 + C=CC(=O)N1CCN(c2nc(=O)n(-c3c(C)ccnc3C(C)C)c3nc(-c4c(O)cccc4F)c(F)cc23)C(C)C1
105
CC1COCCN1c1cc(-c2ccnn2C)c2ccnc(-c3ccn[nH]3)c2n1 (centres undefined) + C=CC(=O)N1CCN(c2nc(=O)n(-c3c(C)ccnc3C(C)C)c3nc(-c4c(O)cccc4F)c(F)cc23)C(C)C1
31.5

Input line: Observed viability, T/C on KRAS-mutant PDC complex spheroid viability for CC(C)n1nc(-c2ccc3oc(N)nc3c2)c2c(N)ncnc21 + CNCc1ccccc1-c1csc(C(C)Nc2nc(C)nc3cc(OC)c(OC)cc23)c1 , please.
Output line: 23.4

* * *

The following compounds are listed with their measured viability, T/C values.
system: KRAS-mutant PDC complex spheroid viability; assay: Anticancer human tumor 186277-243-T-J2-PDC cell line growth inhibition [KRAS2]; settings: second compound 0.316 µM; first compound 0.01 µM; stronger effect = lower value;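 for viability, T/C: viability read after seven days of compound exposure; 100% = DMSO vehicle-treated spheroids so lower means less viable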
Numeric answer only, unit % assumed.

CC1COCCN1c1cc(-c2ccnn2C)c2ccnc(-c3ccn[nH]3)c2n1 (stereo not drawn) + COc1cc2nc(C)nc(NC(C)c3cc(N)cc(C(F)(F)F)c3)c2cc1OC1CCOC1
98.5
CN(C)C/C=C/C(=O)Nc1cc2c(Nc3ccc(F)c(Cl)c3)ncnc2cc1O[C@H]1CCOC1 + COc1cc2nc(C)nc(NC(C)c3cc(N)cc(C(F)(F)F)c3)c2cc1OC1CCOC1
115
CN(C)C/C=C/C(=O)Nc1cc2c(Nc3ccc(F)c(Cl)c3)ncnc2cc1O[C@H]1CCOC1 + CNCc1ccccc1-c1csc(C(C)Nc2nc(C)nc3cc(OC)c(OC)cc23)c1
119
Cn1ncnc1[C@H]1c2n[nH]c(=O)c3cc(F)cc(c23)N[C@@H]1c1ccc(F)cc1 + C=CC(=O)N1CCN(c2nc(OCC3CCCN3C)nc3c2CCN(c2cccc4cccc(C)c24)C3)CC1CC#N
108
CCN1CCN(Cc2ccc(Nc3ncc(F)c(-c4cc(F)c5nc(C)n(C(C)C)c5c4)n3)nc2)CC1 + CC1OCC2(CCN(c3cnc(Sc4ccnc(N)c4Cl)c(N)n3)CC2)C1N
98.7

Input line: # query: viability, T/C of entry CC1COCCN1c1cc(-c2ccnn2C)c2ccnc(-c3ccn[nH]3)c2n1 (stereo not drawn) + CC1OCC2(CCN(c3cnc(Sc4ccnc(N)c4Cl)c(N)n3)CC2)C1N
Output line: 90.3

Input line: Moving on to the next compound: CC(C)n1nc(-c2ccc3oc(N)nc3c2)c2c(N)ncnc21 + CNCc1ccccc1-c1csc(C(C)Nc2nc(C)nc3cc(OC)c(OC)cc23)c1
Output line: 32.9

Input line: Moving on to the next compound: CC1COCCN1c1cc(-c2ccnn2C)c2ccnc(-c3ccn[nH]3)c2n1 (stereo not drawn) + C=CC(=O)N1CCN(c2nc(OCC3CCCN3C)nc3c2CCN(c2cccc4cccc(C)c24)C3)CC1CC#N
Output line: 85.9

* * *

The following molecules are listed with their measured pIC50 values.
System: KRAS-mutant PDC complex spheroid viability
Assay: Anticancer human tumor 186277-243-T-J2-PDC cell line growth inhibition [KRAS2]
Conditions: curve of first compound; second compound 10 µM
From the text: Multicellular complex tumor spheroid response to RAS pathway inhibitors in combination with a targeted agents in patient-derived cell lines with oncogenic KRAS variants from multiple cancer types A high-throughput screen of multi-cell type tumor spheroids was designed to identify active combinations of targeted small molecules and KRAS pathway inhibitors. […] Compounds. […] If the clinical Cmax for an agent had not been determined, the highest concentration tested was 10 microM. […]
Would you please state pIC50, meaning minus log10 of the concentration in mol/L, as a bare number?

CC(C)NCC(C(=O)N1CCN(c2ncnc3c2C(C)CC3O)CC1)c1ccc(Cl)cc1 (stereo not given) + CC1OCC2(CCN(c3cnc(Sc4ccnc(N)c4Cl)c(N)n3)CC2)C1N
7.24
COc1cc2nccc(Oc3ccc(NC(=O)C4(C(=O)Nc5ccc(F)cc5)CC4)cc3)c2cc1OC + COc1cc2nc(C)nc(NC(C)c3cc(N)cc(C(F)(F)F)c3)c2cc1OC1CCOC1
6.73
Cn1ncnc1[C@H]1c2n[nH]c(=O)c3cc(F)cc(c23)N[C@@H]1c1ccc(F)cc1 + C=CC(=O)N1CCN(c2nc(=O)n(-c3c(C)ccnc3C(C)C)c3nc(-c4c(O)cccc4F)c(F)cc23)C(C)C1
8.48

Input line: # query: pIC50 of entry CCNC(=O)CC1N=C(c2ccc(Cl)cc2)c2cc(OC)ccc2-n2c(C)nnc21 (stereo not given) + C=CC(=O)N1CCN(c2nc(=O)n(-c3c(C)ccnc3C(C)C)c3nc(-c4c(O)cccc4F)c(F)cc23)C(C)C1
Output line: 6.51

Input line: Moving on to the next molecule: CC(=O)Nc1cccc(-n2c(=O)n(C3CC3)c(=O)c3c(Nc4ccc(I)cc4F)n(C)c(=O)c(C)c32)c1 + C=CC(=O)N1CCN(c2nc(=O)n(-c3c(C)ccnc3C(C)C)c3nc(-c4c(O)cccc4F)c(F)cc23)C(C)C1
Output line: 9.96

Input line: Moving on to the next molecule: CC(C)NCC(C(=O)N1CCN(c2ncnc3c2C(C)CC3O)CC1)c1ccc(Cl)cc1 (stereo not given) + C=CC(=O)N1CCN(c2nc(=O)n(-c3c(C)ccnc3C(C)C)c3nc(-c4c(O)cccc4F)c(F)cc23)C(C)C1
Output line: 7.29

Input line: Moving on to the next molecule: O=C(c1cc(Cc2n[nH]c(=O)c3ccccc23)ccc1F)N1CCN(C(=O)C2CC2)CC1 + C=CC(=O)N1CCN(c2nc(=O)n(-c3c(C)ccnc3C(C)C)c3nc(-c4c(O)cccc4F)c(F)cc23)C(C)C1
Output line: 5.85

* * *

tested on: KRAS-mutant PDC complex spheroid viability; test: Anticancer human tumor 186277-243-T-J2-PDC cell line growth inhibition [KRAS2]; conditions: second compound 0.0316 µM; first compound 1 µM; stronger effect = lower value;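 for viability, T/C: viability read after seven days of compound exposure; 100% = DMSO vehicle-treated spheroids so lower means less viable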
Checkbox rule: viability, T/C lower than 90% = Yes; viability, T/C not lower than 90% = No.

Known results for compounds:
CC1OCC2(CCN(c3cnc(Sc4ccnc(N)c4Cl)c(N)n3)CC2)C1N (configuration not stated) + C=CC(=O)N1CCN(c2nc(OCC3CCCN3C)nc3c2CCN(c2cccc4cccc(C)c24)C3)CC1CC#N
No
COC(=O)c1ccc2c(C(=Nc3ccc(N(C)C(=O)CN4CCN(C)CC4)cc3)c3ccccc3)c(O)[nH]c2c1 + C=CC(=O)N1CCN(c2nc(OCC3CCCN3C)nc3c2CCN(c2cccc4cccc(C)c24)C3)CC1CC#N
Yes
COc1cc2nccc(Oc3ccc(NC(=O)C4(C(=O)Nc5ccc(F)cc5)CC4)cc3)c2cc1OC + C=CC(=O)N1CCN(c2nc(OCC3CCCN3C)nc3c2CCN(c2cccc4cccc(C)c24)C3)CC1CC#N
No
CCNC(=O)CC1N=C(c2ccc(Cl)cc2)c2cc(OC)ccc2-n2c(C)nnc21 (configuration not stated) + C=CC(=O)N1CCN(c2nc(OCC3CCCN3C)nc3c2CCN(c2cccc4cccc(C)c24)C3)CC1CC#N
No
CC1COCCN1c1cc(-c2ccnn2C)c2ccnc(-c3ccn[nH]3)c2n1 (configuration not stated) + C=CC(=O)N1CCN(c2nc(OCC3CCCN3C)nc3c2CCN(c2cccc4cccc(C)c24)C3)CC1CC#N
Yes

Input line: Input COc1cc(Nc2ncc3c(n2)-c2ccc(Cl)cc2C(c2c(F)cccc2OC)=NC3)ccc1C(=O)O + C=CC(=O)N1CCN(c2nc(OCC3CCCN3C)nc3c2CCN(c2cccc4cccc(C)c24)C3)CC1CC#N ; condition: viability, T/C strictly below 90%. Does it hold?
Output line: Yes

Input line: Moving on to the next compound: O=C(c1cc(Cc2n[nH]c(=O)c3ccccc23)ccc1F)N1CCN(C(=O)C2CC2)CC1 + C=CC(=O)N1CCN(c2nc(OCC3CCCN3C)nc3c2CCN(c2cccc4cccc(C)c24)C3)CC1CC#N
Output line: Yes

* * *

system: KRAS-mutant PDC complex spheroid viability; test: Anticancer human tumor 186277-243-T-J2-PDC cell line growth inhibition [KRAS2]; conditions: second compound 0.1 µM; first compound 1 µM; active = viability on the fitted dose curve at most 10% of control; inactive = the rest
API: response.call in 1 = active, -1 = inactive

COC(=O)c1ccc2c(C(=Nc3ccc(N(C)C(=O)CN4CCN(C)CC4)cc3)c3ccccc3)c(O)[nH]c2c1 + CNCc1ccccc1-c1csc(C(C)Nc2nc(C)nc3cc(OC)c(OC)cc23)c1
-1
COc1cc(Nc2ncc3c(n2)-c2ccc(Cl)cc2C(c2c(F)cccc2OC)=NC3)ccc1C(=O)O + COc1cc2nc(C)nc(NC(C)c3cc(N)cc(C(F)(F)F)c3)c2cc1OC1CCOC1
-1
CCNC(=O)CC1N=C(c2ccc(Cl)cc2)c2cc(OC)ccc2-n2c(C)nnc21 (stereo unspecified) + CNCc1ccccc1-c1csc(C(C)Nc2nc(C)nc3cc(OC)c(OC)cc23)c1
-1
Cn1nccc1Nc1nccc(-c2cc3c(s2)C(C)(C)N(CCN2CCOCC2)C3=O)n1 + CC1OCC2(CCN(c3cnc(Sc4ccnc(N)c4Cl)c(N)n3)CC2)C1N
1
COc1cc2nccc(Oc3ccc(NC(=O)C4(C(=O)Nc5ccc(F)cc5)CC4)cc3)c2cc1OC + CNCc1ccccc1-c1csc(C(C)Nc2nc(C)nc3cc(OC)c(OC)cc23)c1
-1

Input line: Each compound tested received a call. Report the one for CC1COCCN1c1cc(-c2ccnn2C)c2ccnc(-c3ccn[nH]3)c2n1 (stereo unspecified) + CNCc1ccccc1-c1csc(C(C)Nc2nc(C)nc3cc(OC)c(OC)cc23)c1 .
Output line: 1

Input line: Moving on to the next compound: COC(=O)c1ccc2c(C(=Nc3ccc(N(C)C(=O)CN4CCN(C)CC4)cc3)c3ccccc3)c(O)[nH]c2c1 + COc1cc2nc(C)nc(NC(C)c3cc(N)cc(C(F)(F)F)c3)c2cc1OC1CCOC1
Output line: -1

Input line: Moving on to the next compound: CCNC(=O)CC1N=C(c2ccc(Cl)cc2)c2cc(OC)ccc2-n2c(C)nnc21 (stereo unspecified) + COc1cc2nc(C)nc(NC(C)c3cc(N)cc(C(F)(F)F)c3)c2cc1OC1CCOC1
Output line: -1
